Kindly supply the reported PBM binding z-score values for the records listed here.
Test system: PXR homodimer (NR concentration 270 nM)
Test: PBM binding z-score (relative to random genomic background probes); higher = stronger binding; sequences stand for … in GC…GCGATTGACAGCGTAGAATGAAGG
Numbers only.

Here are 8 sequences together with their reported answers.
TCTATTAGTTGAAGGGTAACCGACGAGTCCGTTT :: 0.714
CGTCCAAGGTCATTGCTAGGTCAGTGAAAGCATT :: 2.4
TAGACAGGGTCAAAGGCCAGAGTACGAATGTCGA :: 0.121
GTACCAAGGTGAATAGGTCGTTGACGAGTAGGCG :: 0.00593
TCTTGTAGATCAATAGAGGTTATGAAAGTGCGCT :: 0.0755
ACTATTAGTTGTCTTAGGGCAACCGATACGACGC :: 0.0491
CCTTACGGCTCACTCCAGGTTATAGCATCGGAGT :: 0.257
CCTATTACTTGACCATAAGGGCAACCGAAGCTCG :: 1.2

Hey, quick one: what's PBM binding z-score for each of these?
1. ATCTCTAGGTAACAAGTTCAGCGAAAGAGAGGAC
2. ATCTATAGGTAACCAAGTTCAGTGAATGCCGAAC
3. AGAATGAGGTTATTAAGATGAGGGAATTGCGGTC
4. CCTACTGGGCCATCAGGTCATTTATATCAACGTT

Found:
1. 1.83
2. 2.08
3. 0.85
4. 0.478

Hey, quick one: what's PBM binding z-score for each of these?
1. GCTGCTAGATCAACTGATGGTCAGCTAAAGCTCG
2. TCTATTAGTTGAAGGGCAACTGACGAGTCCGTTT
3. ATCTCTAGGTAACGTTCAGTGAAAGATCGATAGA
4. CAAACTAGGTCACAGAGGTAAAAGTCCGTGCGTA
5. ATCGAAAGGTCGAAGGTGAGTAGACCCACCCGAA
6. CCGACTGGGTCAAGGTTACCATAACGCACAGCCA
7. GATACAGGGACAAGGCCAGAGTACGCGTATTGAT
8. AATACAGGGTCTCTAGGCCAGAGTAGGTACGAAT

Found:
1. -0.885
2. 0.479
3. 0.0107
4. 0.79
5. 0.121
6. 0.366
7. 0.236
8. -0.459

---

System: RARg:RXRa (NR concentration 270 nM, RXRa partner concentration 90 nM)
Assay: PBM binding z-score (relative to random genomic background probes); higher = stronger binding; sequences stand for … in GC…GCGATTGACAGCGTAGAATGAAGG
Kindly supply the reported PBM binding z-score values for the records listed here.

Here are 2 sequences together with their reported answers.
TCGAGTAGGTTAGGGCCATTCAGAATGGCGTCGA :: -0.0137
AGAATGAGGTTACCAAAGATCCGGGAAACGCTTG :: 1.96

Hey, quick one: what's PBM binding z-score for each of these?
1. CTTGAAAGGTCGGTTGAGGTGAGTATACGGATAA
2. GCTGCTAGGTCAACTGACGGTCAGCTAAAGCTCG
3. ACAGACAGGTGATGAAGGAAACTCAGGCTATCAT
4. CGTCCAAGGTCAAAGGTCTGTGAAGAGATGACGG
5. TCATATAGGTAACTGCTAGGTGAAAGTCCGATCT
6. GCTATTAGTTGAAAGGTCAACCGAATGATTCTCG
7. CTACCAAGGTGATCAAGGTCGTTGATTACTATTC

Found:
1: 2.6; 2: 6.76; 3: 0.168; 4: 6.32; 5: 0.501; 6: 6.07; 7: 0.906

Hey, quick one: what's PBM binding z-score for each of these?
1. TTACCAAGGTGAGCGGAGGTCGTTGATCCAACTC
2. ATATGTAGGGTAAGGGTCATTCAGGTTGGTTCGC
3. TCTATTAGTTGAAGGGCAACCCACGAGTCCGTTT

Found:
[1.31, 4.59, 0.894]
